# TEST_TARGET: HNF-1A DBD R263C (Homo sapiens, UniProt P20823 83-279, R263C)
# Sequence (P20823 83-279 R263C): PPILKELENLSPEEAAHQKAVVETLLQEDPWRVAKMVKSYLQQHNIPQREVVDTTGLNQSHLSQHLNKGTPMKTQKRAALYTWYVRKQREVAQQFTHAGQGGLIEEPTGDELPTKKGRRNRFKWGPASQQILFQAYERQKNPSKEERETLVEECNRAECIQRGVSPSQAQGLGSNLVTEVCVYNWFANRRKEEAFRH
# EXPERIMENT_DESCRIPTION: ITC
QUANTITY_NAME: Kd (nM)
Numbers only, in nM.

// returns reported Kd for input RA (rat albumin promoter oligonucleotide), unlabeled (dsDNA) DNA 1: CTTGGTTAATAATTCACCAGA DNA 2: TCTGGTGAATTATTAACCAAG
2000
